Assay: Isoelectric point, log D and log P (SiriusT3)
Type: physicochemical
Details: pH 7.4, pH 7.4, octanol/ISA water; read-out: Log D (7.4)
Residues, ends and D or L forms follow the SMILES beside them.
ASSAY_METRIC: logD
Give bare numbers.

Worked cases, logD given:
# COMPOUND, ASSAY_METRIC, REPORTED_MEASUREMENT
data = [
    ("CC[C@H](C)[C@H](NC(=O)[C@H](Cc1c[nH]c2ccccc12)NC(=O)[C@H](CC(=O)O)NC(=O)[C@H](Cc1c[nH]c2ccccc12)NC(=O)[C@H](CC(C)C)NC(=O)[C@H](CC(=O)O)NC(=O)[C@H](C)NC(=O)[C@@H]1CCCN1C(=O)[C@@H](NC(=O)[C@@H](NC(=O)[C@@H](NC(=O)[C@H](CCSC)NC(=O)[C@@H](NC(C)=O)C(C)C)C(C)C)[C@@H](C)O)[C@@H](C)CC)C(=O)N[C@@H](CC(N)=O)C(=O)N[C@@H](CCCCN)C(N)=O [SEQ ID NO: 4] (Ac-VMVTIPADLWDWINK-NH2)", "logD", -1.32),
    ("CC(=O)N[C@@H](CC(=O)O)C(=O)N[C@@H](CC(C)C)C(=O)N[C@@H](CO)C(=O)N[C@@H](C)C(=O)N[C@H](C(=O)N[C@H]1CSSC[C@@H](C(=O)N[C@@H](Cc2c[nH]cn2)C(N)=O)NC(=O)[C@H](CCC(=O)O)NC(=O)[C@@H]2CCCN2C(=O)[C@H](CC(=O)O)NC(=O)[C@H](Cc2c[nH]c3ccccc23)NC(=O)[C@@H]2CCCN2C(=O)[C@H](Cc2ccccc2)NC(=O)[C@H](C)NC(=O)[C@H](Cc2c[nH]c3ccccc23)NC1=O)C(C)C", "logD", -1.94),
    ("CC(=O)N[C@H](C(=O)N[C@@H](Cc1c[nH]cn1)C(=O)N[C@H](C(=O)N[C@H](C(=O)N[C@@H](Cc1ccccc1)C(=O)N1CCC[C@H]1C(=O)N[C@@H](C)C(=O)N[C@@H](CC(=O)O)C(=O)N[C@@H](CC(C)C)C(=O)N[C@@H](Cc1c[nH]c2ccccc12)C(=O)N[C@@H](CCC(=O)O)C(=O)N[C@@H](Cc1c[nH]c2ccccc12)C(=O)N[C@H](C(=O)N[C@@H](CCCNC(=N)N)C(=O)N[C@@H](CCCNC(=N)N)C(N)=O)C(C)C)[C@@H](C)O)C(C)C)C(C)C [SEQ ID NO: 114] (Ac-VHVTFPADLWEWVRR-NH2)", "logD", -3.59),
]

Give its logD value. Item: CC[C@H](C)[C@H](NC(=O)[C@H](Cc1c[nH]c2ccccc12)NC(=O)[C@H](CCC(=O)O)NC(=O)[C@H](Cc1ccc(O)cc1)NC(=O)[C@H](CC(C)C)NC(=O)[C@H](CC(=O)O)NC(=O)[C@H](C)NC(=O)[C@@H]1CCCN1C(=O)[C@@H](NC(=O)[C@@H](NC(=O)[C@@H](NC(=O)[C@H](CCSC)NC(=O)[C@@H](NC(C)=O)C(C)C)C(C)C)[C@@H](C)O)[C@@H](C)CC)C(=O)N[C@@H](CC(N)=O)C(=O)N[C@@H](CCCCN)C(N)=O [SEQ ID NO: 16] (Ac-VMVTIPADLYEWINK-NH2)
0.24

###

Molecular target: IL-17RA/IL17RC dimerization induced by IL-17A (Homo sapiens, UniProt Q16552)
Sequence (Q16552 24-155): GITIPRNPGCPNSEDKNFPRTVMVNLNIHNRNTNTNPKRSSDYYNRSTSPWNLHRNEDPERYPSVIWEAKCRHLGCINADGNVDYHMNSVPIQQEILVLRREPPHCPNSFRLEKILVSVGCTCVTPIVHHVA
Assay: IL-17RA/IL17RC dimerization assay in response to IL-17A (PathHunter Cytokine Receptor Assay)
Format: cell-based
Details: IL-17A at EC80; read-out: IC50 in IL-17RA/IL7RC dimerization assay
pIC50: −log10 of the molar value. Residues, ends and D or L forms follow the SMILES beside them.
ASSAY_METRIC: pIC50

# MOLECULE, pIC50
data = [
    ("CC[C@H](C)[C@H](NC(C)=O)C(=O)N[C@@H](Cc1c[nH]cn1)C(=O)N[C@H](C(=O)N[C@H](C(=O)N[C@H](C(=O)N1CCC[C@H]1C(=O)N[C@@H](CC(C)C)C(=O)N[C@@H](CCC(=O)O)C(=O)N[C@H](C(=O)N[C@@H](Cc1ccccc1)C(=O)N[C@@H](CCC(=O)O)C(=O)N[C@@H](Cc1c[nH]c2ccccc12)C(=O)N[C@@H](CC(C)C)C(=O)N[C@@H](CCC(N)=O)C(=O)N[C@@H](Cc1c[nH]cn1)C(N)=O)[C@@H](C)CC)[C@@H](C)CC)[C@@H](C)O)C(C)C [SEQ ID NO: 246] (Ac-IHVTIPLEIFEWLQH-NH2)", "> 5.00"),
    ("CC[C@H](C)[C@H](NC(=O)[C@H](Cc1c[nH]c2ccccc12)NC(=O)[C@H](CC(=O)O)NC(=O)[C@H](Cc1c[nH]c2ccccc12)NC(=O)[C@H](CC(C)C)NC(=O)[C@H](CC(=O)O)NC(=O)[C@H](C)NC(=O)[C@@H]1CCCN1C(=O)[C@@H](NC(=O)[C@H](Cc1ccc(O)cc1)NC(=O)[C@H](C)NC(=O)[C@H](CCCNC(=N)N)NC(=O)[C@@H](NC(C)=O)C(C)C)C(C)C)C(=O)N[C@@H](CC(N)=O)C(=O)N[C@@H](CCCCN)C(N)=O [SEQ ID NO: 243] (Ac-VRAYVPADLWDWINK-NH2)", "> 5.00"),
]

Lab note: each molecule below needs its pIC50 filled in.
1. CC[C@H](C)[C@H](NC(C)=O)C(=O)N[C@@H](Cc1c[nH]cn1)C(=O)N[C@H](C(=O)N[C@H](C(=O)N[C@H](C(=O)N1CCC[C@H]1C(=O)N[C@H](C(=O)N[C@@H](CC(=O)O)C(=O)N[C@@H](CC(C)C)C(=O)N[C@@H](Cc1c[nH]c2ccccc12)C(=O)N[C@@H](CC(=O)O)C(=O)N[C@@H](Cc1c[nH]c2ccccc12)C(=O)N[C@H](C(=O)N[C@@H](CC(N)=O)C(=O)N[C@@H](CCCCN)C(N)=O)[C@@H](C)CC)[C@@H](C)CC)[C@@H](C)CC)[C@@H](C)O)C(C)C [SEQ ID NO: 196] (Ac-IHVTIPIDLWDWINK-NH2)
2. CC[C@H](C)[C@H](NC(=O)[C@@H](NC(=O)[C@@H](NC(=O)[C@H](Cc1c[nH]cn1)NC(=O)[C@@H](NC(C)=O)C(C)C)C(C)C)[C@@H](C)O)C(=O)N1CCC[C@H]1C(=O)N[C@@H](C)C(=O)N[C@@H](CC(N)=O)C(=O)N[C@@H](CC(C)C)C(=O)N[C@@H](Cc1c[nH]c2ccccc12)C(=O)N[C@@H](CCC(=O)O)C(=O)N[C@@H](Cc1c[nH]c2ccccc12)C(=O)N[C@H](C(=O)N[C@@H](CCCNC(=N)N)C(=O)N[C@@H](CCCNC(=N)N)C(N)=O)C(C)C [SEQ ID NO: 116] (Ac-VHVTIPANLWEWVRR-NH2)

1. > 5.00
2. > 6.30

###

Field: IC50. Provide a value for each of the compounds that follow.
Target: IL-17RA/IL17RC dimerization induced by IL-17A (Homo sapiens)
Test: IL-17RA/IL17RC dimerization assay in response to IL-17A (PathHunter Cytokine Receptor Assay)
Format: cell-based
Details: IL-17A at EC80; read-out: IC50 in IL-17RA/IL7RC dimerization assay
Residues, ends and D or L forms follow the SMILES beside them.

Consider the following illustrative entries.
# COMPOUND, IC50
data = [
    ("CC[C@H](C)[C@H](NC(=O)[C@@H](NC(=O)[C@H](Cc1ccccc1)NC(=O)[C@H](Cc1c[nH]cn1)NC(=O)[C@@H](NC(C)=O)C(C)C)[C@@H](C)O)C(=O)N1CCC[C@H]1C(=O)N[C@@H](C)C(=O)N[C@@H](CC(=O)O)C(=O)N[C@@H](Cc1ccccc1)C(=O)N[C@@H](Cc1c[nH]c2ccccc12)C(=O)N[C@@H](CCC(=O)O)C(=O)N[C@@H](Cc1c[nH]c2ccccc12)C(=O)N[C@@H](Cc1ccccc1)C(=O)N[C@@H](CCCNC(=N)N)C(=O)N[C@@H](CCCNC(=N)N)C(N)=O [SEQ ID NO: 142] (Ac-VHFTIPADFWEWFRR-NH2)", "< 500 nM"),
    ("CC[C@H](C)[C@H](NC(=O)[C@H](Cc1c[nH]c2ccccc12)NC(=O)[C@H](CC(=O)O)NC(=O)[C@H](Cc1c[nH]c2ccccc12)NC(=O)[C@H](CC(C)C)NC(=O)[C@H](CC(=O)O)NC(=O)[C@H](C)NC(=O)[C@@H]1CCCN1C(=O)[C@@H](NC(=O)[C@@H](NC(=O)[C@@H](NC(=O)[C@H](CCSC)NC(=O)[C@@H](NC(C)=O)C(C)C)C(C)C)[C@@H](C)O)[C@@H](C)CC)C(=O)N[C@@H](CC(N)=O)C(=O)N[C@@H](CCCCN)C(N)=O [SEQ ID NO: 4] (Ac-VMVTIPADLWDWINK-NH2)", "< 100 nM"),
]

Sample CC(=O)N[C@H](C(=O)N[C@@H](CCCNC(=N)N)C(=O)N[C@H](C(=O)N[C@H](C(=O)N[C@H](C(=O)N1CCC[C@H]1C(=O)N[C@@H](CCC(N)=O)C(=O)N[C@@H](CCC(=O)O)C(=O)N[C@@H](CC(C)C)C(=O)N[C@@H](Cc1c[nH]c2ccccc12)C(=O)N[C@@H](CCC(=O)O)C(=O)N[C@@H](Cc1c[nH]c2ccccc12)C(=O)N[C@H](C(=O)N[C@@H](CCCNC(=N)N)C(=O)N[C@@H](CCCNC(=N)N)C(N)=O)C(C)C)C(C)C)[C@@H](C)O)C(C)C)C(C)C [SEQ ID NO: 235] (Ac-VRVTVPQELWEWVRR-NH2) — what was its IC50?
< 10000 nM

Each recorded value in this set is attributed to patent US11236129B2.
